MEASURED_TARGET: D(2) dopamine receptor (Homo sapiens)
Sequence (P14416 whole entry): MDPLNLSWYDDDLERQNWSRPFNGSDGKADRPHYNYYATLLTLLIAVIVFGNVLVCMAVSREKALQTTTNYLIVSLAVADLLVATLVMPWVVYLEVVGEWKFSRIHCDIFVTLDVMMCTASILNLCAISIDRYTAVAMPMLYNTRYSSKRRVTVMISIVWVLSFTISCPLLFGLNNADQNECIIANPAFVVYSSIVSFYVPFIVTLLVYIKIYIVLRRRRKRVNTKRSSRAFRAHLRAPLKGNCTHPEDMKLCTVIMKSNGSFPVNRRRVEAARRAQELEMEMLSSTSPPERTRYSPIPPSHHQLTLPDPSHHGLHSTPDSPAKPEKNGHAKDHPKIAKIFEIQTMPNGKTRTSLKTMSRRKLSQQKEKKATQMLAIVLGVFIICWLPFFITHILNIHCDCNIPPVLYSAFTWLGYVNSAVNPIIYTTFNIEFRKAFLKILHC
ASSAY: Antagonist activity at dopamine D2 receptor (unknown origin)
REPORTED_ENDPOINT: Ki (nM)
Write the value in nM as a bare number.

[ask] Give recorded Ki. CCN1CCCC1CNc1nncc2ccc(OC)c(OC)c12 (stereo unspecified)
[reply] 3.9
